Where these numbers come from: paper PMC11123948

test system: CVB5; assay: Viral yield reduction assay, CVB5; assay type: cell-based, Coxsackievirus B5 (clinical isolate); conditions: CVB5, Vero cells
Counter-ions that a name gives are not always drawn.
quantity_kind: IC50 (µM)

>  <molecule>
N=C(N)N [Guanidine hydrochloride, reference compound]

>  <units>
µM

>  <test_result>
474

$$$$

* * *

This section presents molecules with their documented CC50 at 24 h values.
assay: in vitro; settings: African green monkey, Vero cells
quantity_kind: CC50 at 24 h (µM)

>  <molecule>
C=CC1N(c2nc3ccccc3s2)N=C(c2ccccc2)NN1c1ccc(Cl)cc1 (stereo not drawn)

>  <quantity_kind>
CC50 at 24 h

>  <units>
µM

>  <sign>
>

>  <test_result>
291

$$$$
>  <molecule>
CC1N(c2nc3ccccc3s2)N=C(c2ccccc2)NN1c1ccccc1 (stereo not drawn)

>  <quantity_kind>
CC50 at 24 h

>  <units>
µM

>  <sign>
>

>  <test_result>
325

$$$$
>  <molecule>
Cc1cc(CCCOc2c(C)cc(-c3noc(C(F)(F)F)n3)cc2C)on1 [Pleconaril, reference compound]

>  <quantity_kind>
CC50 at 24 h

>  <units>
µM

>  <sign>
=

>  <test_result>
656

$$$$
>  <molecule>
C=CC1N(c2nc3ccccc3s2)N=C(c2ccccc2)NN1c1ccc(OC)cc1 (stereo not drawn)

>  <quantity_kind>
CC50 at 24 h

>  <units>
µM

>  <sign>
>

>  <test_result>
293

$$$$
>  <molecule>
c1ccc(C2=NN(c3nc4ccccc4s3)CN(c3ccccc3)N2)cc1

>  <quantity_kind>
CC50 at 24 h

>  <units>
µM

>  <sign>
=

>  <test_result>
620

$$$$
>  <molecule>
Brc1ccc(N2CN(c3nc4ccccc4s3)N=C(c3ccccc3)N2)cc1

>  <quantity_kind>
CC50 at 24 h

>  <units>
µM

>  <sign>
=

>  <test_result>
886

$$$$
>  <molecule>
CCC1N(c2nc3ccccc3s2)N=C(c2ccccc2)NN1c1ccc(Br)cc1 (stereo not drawn)

>  <quantity_kind>
CC50 at 24 h

>  <units>
µM

>  <sign>
=

>  <test_result>
946

$$$$
>  <molecule>
CCC1N(c2nc3ccccc3s2)N=C(c2ccccc2)NN1c1ccc(F)cc1 (stereo not drawn)

>  <quantity_kind>
CC50 at 24 h

>  <units>
µM

>  <sign>
=

>  <test_result>
360

$$$$
>  <molecule>
CCC1N(c2nc3ccccc3s2)N=C(c2ccccc2)NN1c1ccccc1 (stereo not drawn)

>  <quantity_kind>
CC50 at 24 h

>  <units>
µM

>  <sign>
>

>  <test_result>
313

$$$$
